# System: UACC-62 melanoma
# Procedure Text: NCI-60 one-dose screen, 48 h (100 = growth as untreated, 0 = no growth, -100 = all killed)
# Test Parameters: 10 µM unless noted
About 83,000 compounds went through this panel and 20% of them were active in at least one assay; those are over-represented in the sample as a whole.
Could you label it MET if measured growth is 40% or higher, and NOT MET otherwise?

INSERT INTO results (compound, cat) VALUES
  ('Oc1cccc2ccc(N/N=C/c3cc(CN4CCCCC4)c(O)c4ncccc34)nc12', 'NOT MET'),
  ('c1ccc2c(-c3nc(-c4c[nH]c5ncccc45)cs3)c[nH]c2c1', 'MET'),
  ('CCN(CC)c1ccc(/C=C/c2cc(C)c3ccccc3n2)cc1', 'NOT MET'),
  ('COc1cccc2c1C(=O)c1c(O)c3c(c(O)c1C2=O)C[C@@](O)(C(=O)CO)C[C@@H]3OC1C[C@H](N)[C@H](O)[C@H](C)O1 (some centres not stated)', 'NOT MET'),
  ('O=C(/C=C/c1ccc2ccccc2c1)Nc1ncc(Cc2ccccc2)s1', 'MET'),
  ('C=C(C)[C@@H]1CC[C@]2(C=O)CC[C@]3(C)[C@H](CC[C@@H]4[C@@]5(C)C/C(=C/c6cccnc6)C(=O)C(C)(C)[C@@H]5CC[C@]43C)[C@@H]12', 'MET'),
  ('Cn1cc(-c2csc(-c3c[nH]c4ccccc34)n2)c2cccnc21', 'MET'),
  ('C=C(C)[C@@H]1CC[C@]2(C(=O)N3CCN(C)CC3)CC[C@]3(C)[C@H](CC[C@@H]4[C@@]5(C)C/C(=C/c6ccc(C(F)(F)F)cc6)C(=O)C(C)(C)[C@@H]5CC[C@]43C)[C@@H]12', 'MET'),
  ('Cc1cc(C=O)c(C)c2c1[nH]c1ccccc12', 'MET'),
  ('COc1cc2c(cc1OC)C(=O)/C(=C/c1cc(-c3ccc4c(c3)OCO4)n[nH]1)C2', 'NOT MET'),
  ('Cn1cc(-c2nc(-c3c[nH]c4ncccc34)cs2)c2ccccc21', 'MET'),
  ('Cc1cc2nc3c4cc(N)ccc4n(CCN(C)C)c3nc2cc1C', 'NOT MET');

###

# Tested on: NCI-H322M lung
# Procedure Text: NCI-60 one-dose screen, 48 h
# Test Parameters: 10 µM unless noted
The panel holds about 83,000 compounds, 20% with a hit somewhere; the sample as a whole holds those more often. Activity calls are given as the source filed them. Rule for the calls: active = growth percent below 10; inactive = the rest.
Outcome codes: active, inactive

INSERT INTO results (molecule, cat) VALUES
  ('CCCCCC1CCCCN1C(=O)OCC (stereo unspecified)', 'inactive'),
  ('COC(=O)[C@]12CC[C@@H](C)[C@H](C)[C@@H]1C1=CC[C@@H]3[C@@](C)(CC#N)C4=C(C[C@@]3(C)[C@]1(C)CC2)OC[C@]4(C)C=O', 'inactive'),
  ('COc1ccc(C(=O)/C=C/c2cc(-c3cc(OC)c(OC)c(OC)c3)n[nH]2)cc1OC', 'active'),
  ('Cc1cc(C=O)c(C)c2c1[nH]c1ccccc12', 'inactive'),
  ('CCCC(=O)N1CCCCC1CC (stereo unspecified)', 'inactive'),
  ('COc1cc2[nH]c(C(=O)c3cc(OC)c(OC)c(OC)c3)c(N)c2cc1C#CC1CC1', 'inactive');

###

# Tested on: MDA-MB-231 breast
# Procedure Text: NCI-60 one-dose screen, 48 h (100 = growth as untreated, 0 = no growth, -100 = all killed)
# Test Parameters: 10 µM unless noted
This is part of a sample that, as a whole, favours compounds with a hit. Of some 83,000 tested, about 20% had one in any assay.
As shown below, each of these compounds has a reported growth value.
Readout Name: growth (%)

INSERT INTO results (compound, observed_value) VALUES
  ('O=S(=O)(NCCNc1cc(-c2cn(-c3ccccc3)nc2-c2cccc(O)c2)ccn1)c1ccc(C(F)(F)F)cc1', 5.29),
  ('O=C1C(=O)N(CCCCn2cc(-c3ccccc3)nn2)c2ccccc21', 102),
  ('C=C(C)[C@@H]1CC[C@]2(CN)CC[C@]3(C)[C@H](CC[C@@H]4[C@@]5(C)CCC(=O)NC(C)(C)[C@@H]5CC[C@]43C)[C@@H]12', 58.7),
  ('C/C(=N\Nc1ccc2ccccc2n1)c1ccccn1', -5.17),
  ('CC(=O)n1c(/C(C#N)=C/c2ccc(N(C)C)cc2)cc2ccccc21', 44.7),
  ('CN1CCN(CC#CCn2c3c(c4ccccc42)C[C@]2(C)[C@H]4CC[C@@H]5[C@H]6[C@H]7OC(=O)[C@@]6(CCC7(C)C)CC[C@@]5(C)[C@]4(C)CC[C@H]2C3(C)C)CC1', 42.7),
  ('Cc1ccc(-c2nc([P+](c3ccccc3)(c3ccccc3)c3ccccc3)c(N3CCOCC3)o2)cc1', -0.628),
  ('CC1(c2ccccc2)OC1C(=O)O (configuration not stated)', 110),
  ('O=[N+]([O-])c1cccc(/C=N\Nc2ccccc2)c1', 55.7),
  ('CN(C)c1cccc2[nH]c(-c3[nH]ncc3Nc3ccnc(N)n3)nc12', -18.8),
  ('Clc1ccc2[nH]cc(-c3nc(-c4c[nH]c5ncccc45)cs3)c2c1', 37.9),
  ('N=C(N)c1ccc(S(N)(=O)=O)cc1', 110);

###

# Test system: BT-549 breast
# Procedure Text: NCI-60 one-dose screen, 48 h
# Test Parameters: 10 µM unless noted
About 83,000 compounds went through this panel and 20% of them were active in at least one assay; those are over-represented in the sample as a whole. Active and inactive are the calls of the source. Rule for the calls: active = growth percent below 10; inactive = the rest.
Outcome codes: T (active), F (inactive)

INSERT INTO assay_data (compound, tested_on, cat) VALUES
  ('N=C(N)c1ccc(-c2ccc(-c3cc(F)cc(F)c3)o2)nc1', 'BT-549 breast', 'F'),
  ('CC1(C)c2ccccc2C(=O)C1(Br)Cc1ccccc1 (stereo unspecified)', 'BT-549 breast', 'F'),
  ('C/C(=N/NC(N)=S)C(=O)O', 'BT-549 breast', 'F'),
  ('CC1(C)C(=O)/C(=C\c2ccccn2)C[C@]2(C)[C@H]3CC[C@@H]4[C@@H](C(=O)/C=C/c5ccccn5)CC[C@@]4(C)[C@]3(C)CC[C@@H]12', 'BT-549 breast', 'T'),
  ('COc1cc2nc(Cl)nc(Nc3cccc(C(=O)/C=C/c4ccc(Cl)cc4)c3)c2cc1OC', 'BT-549 breast', 'F'),
  ('COc1cccc(-c2nn(-c3ccccc3)cc2-c2ccnc(NCCCN)c2)c1', 'BT-549 breast', 'F'),
  ('NC(N)=N/N=C/c1ccc(-c2ccc(-c3ccc(Cl)cn3)s2)cc1', 'BT-549 breast', 'F'),
  ('O=C1CCCC=CC[C@H]2C=C(Cl)C(=O)C2=CC[C@H](CCCCC(F)(F)F)OC(=O)CCCC=CC[C@H]2C=C(Cl)C(=O)C2=CC[C@H](CCCCC(F)(F)F)OC(=O)CCCC=CC[C@H]2C=C(Cl)C(=O)C2=CC[C@H](CCCCC(F)(F)F)O1', 'BT-549 breast', 'F'),
  ('CN(C)c1ccc(N)c2ccccc12', 'BT-549 breast', 'F'),
  ('Cn1c(=O)c2c(nc(Br)n2CC(=O)Nc2ccc(F)cc2)n(C)c1=O', 'BT-549 breast', 'F'),
  ('Cn1cc(-c2csc(-c3cn(CCNC(=O)OC(C)(C)C)c4ccc(F)cc34)n2)c2cccnc21', 'BT-549 breast', 'F');

###

# Test system: MCF7 breast
# Procedure Text: NCI-60 one-dose screen, 48 h
# Test Parameters: 10 µM unless noted
# Method: Growth inhibition of the MCF7 human tumor cell line is measured as a screen for anti-cancer activity. Cells are grown in 96 well plates and exposed to the test compound for 48 hours. Compounds are tested at a single concentration, which is 10^-5 M for most compounds. The reported endpoint is percent growth (GI% or GIPRCNT), where numbers from 0 - 100% represent growth inhibition, and numbers from -100% - 0 represent cell death. For example, a value of 40 represents 60% growth inhibition. […]
About 83,000 compounds went through this panel and 20% of them were active in at least one assay; those are over-represented in the sample as a whole. Activity calls are given as the source filed them. The calls were made as follows: active = growth percent below 10; inactive = the rest.
Classes used: 1 (active), 0 (inactive)

INSERT INTO measurements (compound, tested_on, cat) VALUES
  ('COc1ccc(C2CC(=O)c3c(nc4ccc(Cl)cc4c3N)C2)cc1 (stereo not drawn)', 'MCF7 breast', 0),
  ('Nc1nc2c(c(=O)[nH]1)C(c1ccc3c(c1)OCO3)C=C(C(=O)O)N2 (stereo not drawn)', 'MCF7 breast', 0),
  ('COc1cc(-c2cc(-c3nc4ccccc4[nH]3)[nH]n2)cc(OC)c1OC', 'MCF7 breast', 0),
  ('O=C(/C=C/c1cccc(O)c1)c1ccccc1O', 'MCF7 breast', 0),
  ('Cc1oc(-c2ccccc2Cl)cc1C(=O)Nc1ccc(S(N)(=O)=O)cc1', 'MCF7 breast', 0),
  ('CC[C@]12C=CCN3CC[C@@]4(c5cc([C@H]6CCC(=O)N6)c(OC)cc5N(C)[C@H]4[C@@](O)(C(=O)OC)[C@@H]1OC(C)=O)[C@@H]32', 'MCF7 breast', 0),
  ('CC(=O)NC1=C(C#N)C(c2ccccc2Cl)c2c(ccc3ccccc23)O1 (stereo not drawn)', 'MCF7 breast', 0),
  ('Clc1ccc(Cn2cc(-c3nc4ccc(Br)nc4n3Cc3ccc(Cl)cc3)c3cccnc32)cc1', 'MCF7 breast', 0),
  ('Cn1cc(-c2csc(-c3cn(CCNC(=O)OC(C)(C)C)c4ccccc34)n2)c2cccnc21', 'MCF7 breast', 0),
  ('Cc1ccc(-c2ccc(Nc3ccccc3)nn2)cc1S(N)(=O)=O', 'MCF7 breast', 0),
  ('COc1ccc(NC(=O)c2ccc3c(c2)nc(-c2cc4ccccc4[nH]c2=O)n3-c2cc(C(C)(C)C)[nH]n2)cc1', 'MCF7 breast', 0),
  ('COC(=O)[C@]12CC[C@@H](C)[C@H](C)[C@@H]1C1=CC[C@@H]3[C@@](C)(CC#N)C4=C(C[C@@]3(C)[C@]1(C)CC2)OC[C@]4(C)C=O', 'MCF7 breast', 1),
  ('Fc1ccc(Nc2ccc3c(OCCCN4CCOCC4)cccc3n2)cc1F', 'MCF7 breast', 0),
  ('COc1cnc2c(c1)C(=O)c1c-2n(CCCNC(C)C)c(=O)c2cc([N+](=O)[O-])ccc12', 'MCF7 breast', 1),
  ('C[C@@H]1CCCCCCCCC[C@H](O)C(=O)C[C@@H](SC[C@@H](O)C(=O)O)C(=O)O1', 'MCF7 breast', 0),
  ('Cc1csc(Nc2nc(-c3cccc(Br)c3)nc(C(Cl)(Cl)Cl)n2)n1', 'MCF7 breast', 0),
  ('c1ccc(CN2C(c3ccccc3)=Nc3ccccc3C2c2c[nH]c3ccccc23)cc1 (stereo not drawn)', 'MCF7 breast', 0),
  ('CC1(C)c2ccccc2C(=O)C1(Br)Cc1ccccc1 (stereo not drawn)', 'MCF7 breast', 0),
  ('Cc1cccc(C)c1NC(=O)CSC(=S)N1CCN(CCOCCO)CC1', 'MCF7 breast', 0),
  ('COc1ccc2c3c(c4ccccc4cc13)C(=O)N(CCN(C)CCN)C2=O', 'MCF7 breast', 1),
  ('O=C(CI)Nc1ccc(O)c2ccccc12', 'MCF7 breast', 1),
  ('Oc1cccc2ccc(N/N=C/c3cc(CN4CCCCC4)c(O)c4ncccc34)nc12', 'MCF7 breast', 0),
  ('COc1ccc(/C(=C\c2ccc3c(c2)OCO3)C(=O)Nc2nc3ccccc3s2)cc1OC', 'MCF7 breast', 0),
  ('COc1ccc(-c2c(-c3nc4ccc(N5CCOCC5)cc4[nH]3)[nH]c(C)c2C(C)=O)cc1', 'MCF7 breast', 0),
  ('O=P(O)(c1ccccc1)c1ccccc1I', 'MCF7 breast', 0),
  ('COc1ccc(-c2cc(/C=C/C(=O)c3ccc(N)cc3)[nH]n2)cc1', 'MCF7 breast', 0),
  ('CCOC(=O)C1OC1(c1ccccc1)c1ccccc1 (stereo not drawn)', 'MCF7 breast', 0),
  ('CC(=O)Cc1nsc(NC(=O)c2ccoc2COc2ccccc2)n1', 'MCF7 breast', 0);
